Target: 3-hydroxy-3-methylglutaryl-coenzyme A reductase (Rattus norvegicus)
Sequence (whole entry): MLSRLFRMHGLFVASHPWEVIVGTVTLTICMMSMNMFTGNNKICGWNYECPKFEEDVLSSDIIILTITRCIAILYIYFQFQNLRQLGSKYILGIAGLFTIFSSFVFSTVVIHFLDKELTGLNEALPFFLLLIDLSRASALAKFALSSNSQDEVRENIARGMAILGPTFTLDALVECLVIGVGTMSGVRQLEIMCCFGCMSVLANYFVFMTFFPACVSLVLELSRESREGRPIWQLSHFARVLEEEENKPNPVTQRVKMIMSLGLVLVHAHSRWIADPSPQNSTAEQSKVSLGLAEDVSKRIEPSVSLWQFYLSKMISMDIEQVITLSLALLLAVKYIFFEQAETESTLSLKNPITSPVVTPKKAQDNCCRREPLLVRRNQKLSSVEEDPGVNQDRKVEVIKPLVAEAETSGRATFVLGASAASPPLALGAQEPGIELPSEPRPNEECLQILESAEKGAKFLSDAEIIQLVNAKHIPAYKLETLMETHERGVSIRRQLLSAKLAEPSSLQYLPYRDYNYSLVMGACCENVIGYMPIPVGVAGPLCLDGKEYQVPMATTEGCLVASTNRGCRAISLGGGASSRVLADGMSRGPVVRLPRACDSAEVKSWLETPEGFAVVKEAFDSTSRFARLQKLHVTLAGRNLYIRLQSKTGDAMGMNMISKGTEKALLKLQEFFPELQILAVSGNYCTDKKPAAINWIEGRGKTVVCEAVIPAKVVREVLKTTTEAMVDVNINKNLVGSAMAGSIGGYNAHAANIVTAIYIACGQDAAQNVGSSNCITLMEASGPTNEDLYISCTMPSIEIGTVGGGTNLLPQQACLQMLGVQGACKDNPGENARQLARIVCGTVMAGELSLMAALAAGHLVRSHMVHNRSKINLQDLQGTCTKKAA
Assay: Relative potency against HMG CoA reductase
Binarize Relative potency at 0.2; below is label 1, at or above is label 0.

Request: Given the entry `O=C1C[C@H](O)C[C@@H](C=C2c3ccccc3-c3ccccc32)O1` , would its reported Relative potency be below 0.2?
Result: label 0

Request: How about O=C1C[C@H](O)C[C@@H](/C=C/c2ccc(Cl)cc2Cl)O1 (stereo in doubt; 6a(+)) ?
Result: label 1

Request: Item: `C[C@]1(O)CC(=O)O[C@H](CCc2ccc(Cl)cc2Cl)C1`
Result: label 1

Request: Could you do the same for `C[C@]1(O)CC(=O)O[C@H](/C=C/c2ccc(Cl)cc2Cl)C1` , please?
Result: label 1

Request: Please give the result for O=C1C[C@H](O)C[C@@H](/C=C/c2ccc(Cl)cc2Cl)O1 (racemic) too.
Result: label 1

Request: And `O=C1C[C@H](O)C[C@@H](C=C2c3ccccc3C=Cc3ccccc32)O1` ?
Result: label 0

Request: Now try `O=C1C[C@H](O)C[C@@H](/C=C/c2cccc3ccc4ccccc4c23)O1` .
Result: label 0

Request: Try this compound next: `CC[C@H](C)C(=O)O[C@H]1CCC=C2C=C[C@H](C)[C@H](CC[C@@H]3C[C@@H](O)CC(=O)O3)[C@H]21`
Result: label 0

====

Target: 3-hydroxy-3-methylglutaryl-coenzyme A reductase (Rattus norvegicus)
Test: Inhibition of partially purified rat liver HMG CoA reductase at 10 ug/ml concentration
QUANTITY KIND: inhibition (%)
Numbers only here, please. The scale is %.

Request: Dear colleague, I am looking for the recorded inhibition of the following compound: O=C1C[C@H](O)CC(CCC2CCCCC2)O1 (some centres undefined)
Result: 6

Request: `O=C1C[C@H](O)C[C@@H](C2CCCCC2)O1` ?
Result: 0

Request: Here is the next compound: `CO[C@@H]1C[C@H](O)C[C@@H](/C=C/c2ccc(Cl)cc2Cl)O1`
Result: 0

Request: Also check `O=C1C[C@H](O)C[C@@H](/C=C/c2ccccc2)O1`
Result: 15
